Reference for the values: patent US11584744B2

Target: recombinant S. aureus MetRS enzyme (Staphylococcus aureus)
Sequence (A0A0H2XID2 2-657): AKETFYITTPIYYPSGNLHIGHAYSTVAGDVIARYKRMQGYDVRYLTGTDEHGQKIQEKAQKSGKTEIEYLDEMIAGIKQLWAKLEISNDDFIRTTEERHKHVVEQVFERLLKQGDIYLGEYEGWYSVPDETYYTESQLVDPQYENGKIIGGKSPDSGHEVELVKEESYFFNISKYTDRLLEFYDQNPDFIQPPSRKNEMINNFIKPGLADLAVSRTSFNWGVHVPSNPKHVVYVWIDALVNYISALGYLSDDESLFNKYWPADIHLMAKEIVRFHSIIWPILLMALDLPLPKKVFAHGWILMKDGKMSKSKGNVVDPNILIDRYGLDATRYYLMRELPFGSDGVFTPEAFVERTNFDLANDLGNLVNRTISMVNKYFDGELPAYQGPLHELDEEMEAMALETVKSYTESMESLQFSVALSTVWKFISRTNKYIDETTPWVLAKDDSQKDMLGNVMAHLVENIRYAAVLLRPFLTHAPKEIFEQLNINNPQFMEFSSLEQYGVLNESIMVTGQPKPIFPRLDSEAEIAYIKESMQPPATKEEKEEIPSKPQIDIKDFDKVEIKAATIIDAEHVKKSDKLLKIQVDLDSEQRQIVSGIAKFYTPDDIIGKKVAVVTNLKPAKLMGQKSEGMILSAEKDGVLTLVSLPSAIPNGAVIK
Assay info: Inhibition of SaMetRS, ATP depletion assay
Assay type: biochemical
Reported conditions: read-out: (B) MetRS (S. aureus) IC50
# IC50 per record follows

Compound: COc1ccc(-c2cccc3nc(Cc4nc5nc(Cl)ccc5[nH]4)cn23)c(Cl)c1
IC50: < 0.025 µM
//
Compound: O=c1n(Cc2nc3nc(F)ccc3[nH]2)cc(Cc2ccc(Cl)cc2Cl)n1CC(F)F
IC50: < 0.025 µM
//
Compound: COc1cc(Cl)c(-c2cccc3nc(Cc4nc5nc(F)ccc5[nH]4)cn23)cc1OC
IC50: < 0.025 µM
//
Compound: COc1cc(-c2cccc3nc(Cc4nc5nc(Br)ccc5[nH]4)cn23)c(Cl)cc1Cl
IC50: < 0.025 µM
//
Compound: CCn1c(Cc2ccc(OC)cc2Cl)cn(Cc2nc3nc(Cl)ccc3[nH]2)c1=O
IC50: < 0.025 µM
//
Compound: Fc1ccc2[nH]c(Cc3cn4c(-c5ccc(Cl)cc5Cl)cccc4n3)nc2n1
IC50: < 0.025 µM
//
Compound: COc1ccc(-c2ccc(NC(C)=O)c3nc(Cc4nc5nc(Br)ccc5[nH]4)cn23)c(Cl)c1
IC50: < 0.025 µM
//
Compound: CS(=O)(=O)c1nc(Cc2ccc(Cl)cc2Cl)cn1Cc1nc2nc(Cl)ccc2[nH]1
IC50: < 0.025 µM
//
Compound: COc1cc(-c2cccc3nc(Cc4nc5nc(F)ccc5[nH]4)cn23)c(Cl)cc1Cl
IC50: < 0.025 µM
//
Compound: CCCn1c(Cc2ccc(Cl)cc2Cl)cn(Cc2nc3ccc(Cl)nc3[nH]2)c1=O
IC50: < 0.025 µM
//
Compound: CS(=O)(=O)c1nc(Cc2ccc(Cl)cc2Cl)cn1Cc1nc2ccc(F)nc2[nH]1
IC50: < 0.025 µM
//
Compound: COc1ccc(-c2cccc3nc(Cc4nc5nc(C(F)(F)F)ccc5[nH]4)cn23)c(Cl)c1
IC50: 0.177 µM
//
Compound: COc1ccc(-c2ccc3c(=O)ccn(Cc4nc5nc(F)ccc5[nH]4)c3c2)c(Cl)c1
IC50: < 0.025 µM
//
Compound: CCn1c(Cc2ccc(OC)cc2Cl)cn(Cc2nc3nc(F)ccc3[nH]2)c1=O
IC50: < 0.025 µM
//
Compound: O=c1n(Cc2nc3nc(F)ccc3[nH]2)cc(Cc2ccc(Cl)cc2Cl)n1C1CCOCC1
IC50: < 0.025 µM
//
Compound: CCn1c(Cc2ccc(Cl)cc2Cl)cn(Cc2nc3ccc(Br)nc3[nH]2)c1=O
IC50: < 0.025 µM
